target: DNA (cytosine-5)-methyltransferase 3A (Homo sapiens, UniProt Q9Y6K1); test: Inhibition of human DNMT3A catalytic domain using AdoMet assessed as reduction of methylation in 5'-biotin/3' 6-carboxyfluorescein labeled DNA duplex at CpG site at 32 uM after 1 hr by fluorescence assay relative to control
Sequence (Q9Y6K1 whole entry, looked up, the tested form may be a part): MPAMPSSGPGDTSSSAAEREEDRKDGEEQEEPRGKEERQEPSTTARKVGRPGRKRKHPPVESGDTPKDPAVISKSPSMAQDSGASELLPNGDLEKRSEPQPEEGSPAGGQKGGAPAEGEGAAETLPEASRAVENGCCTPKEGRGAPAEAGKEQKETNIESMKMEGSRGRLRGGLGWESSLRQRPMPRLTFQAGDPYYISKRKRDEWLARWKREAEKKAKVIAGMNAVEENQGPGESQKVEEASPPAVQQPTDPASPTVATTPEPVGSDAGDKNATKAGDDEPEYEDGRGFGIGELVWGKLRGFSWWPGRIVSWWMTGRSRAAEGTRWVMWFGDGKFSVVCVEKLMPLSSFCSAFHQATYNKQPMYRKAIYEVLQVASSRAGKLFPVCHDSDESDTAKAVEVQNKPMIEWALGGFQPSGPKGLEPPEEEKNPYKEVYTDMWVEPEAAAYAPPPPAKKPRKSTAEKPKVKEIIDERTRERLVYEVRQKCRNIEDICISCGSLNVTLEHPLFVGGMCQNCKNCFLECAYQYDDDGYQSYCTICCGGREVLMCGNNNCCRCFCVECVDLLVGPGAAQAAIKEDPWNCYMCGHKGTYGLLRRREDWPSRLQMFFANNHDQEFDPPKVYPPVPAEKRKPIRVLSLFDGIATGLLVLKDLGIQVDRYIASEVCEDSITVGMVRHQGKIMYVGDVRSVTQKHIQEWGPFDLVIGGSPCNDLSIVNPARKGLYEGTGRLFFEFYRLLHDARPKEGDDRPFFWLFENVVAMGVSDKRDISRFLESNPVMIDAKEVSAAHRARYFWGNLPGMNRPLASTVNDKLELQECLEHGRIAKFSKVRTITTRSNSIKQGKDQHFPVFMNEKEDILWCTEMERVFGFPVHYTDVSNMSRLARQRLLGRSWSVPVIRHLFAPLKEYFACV
QUANTITY: inhibition (%)

Please review the entries below; each comes with its answer.
[
  {
    "GIVEN_SMILES": "Nc1ncnc2cc(OCC3CCN(CCNc4ccnc5ccccc45)CC3)ccc12",
    "SYSTEM": "DNA (cytosine-5)-methyltransferase 3A (Homo sapiens, UniProt Q9Y6K1)",
    "QUANTITY": "inhibition",
    "VALUE_REPORTED": 68
  },
  {
    "GIVEN_SMILES": "Fc1ccc2nccc(NCCN3CCC(COc4ccc5c(NCCCc6ccccc6)ncnc5c4)CC3)c2c1",
    "SYSTEM": "DNA (cytosine-5)-methyltransferase 3A (Homo sapiens, UniProt Q9Y6K1)",
    "QUANTITY": "inhibition",
    "VALUE_REPORTED": 82
  }
]

(a) c1ccc(CN2CCC(Nc3ncnc4cc(OCC5CCN(CCNc6ccnc7ccccc67)CC5)ccc34)CC2)cc1
(b) c1ccc(CCCNc2ncnc3cc(OCC4CCN(CCNc5cccc6ccccc56)CC4)ccc23)cc1
Inquiry: Which numeric inhibition is bigger, that of a or that of b ? Please respond with the label that marks your chosen entry.
Reply text: a
(a: 93%, b: 0%)
